Test system: GST-tagged Cn
protocol-notes: PEPperPRINT peptide microarray binding assay with GST-tagged Cn
test-settings: GST-tagged Cn, max over the chip locations
Let's look at some sequences and their measured Chip Fluorescence (max).
Could you keep your reply to the number by itself?

Before answering, review these 5 worked examples.
residue_codes="GTMSPPDISITPPYAP [SeqRBM_3223]" system_name="GST-tagged Cn" numeric_readout=0
residue_codes="KKMSPPCISIDPAPNN [SeqRBMlowT_7656]" system_name="GST-tagged Cn" numeric_readout=0.1833
residue_codes="SHMAPPAINIDFAPSN [SeqCRZ1_Metarhizium_rileyi]" system_name="GST-tagged Cn" numeric_readout=0.3108
residue_codes="STSSLPTFSFSSPQST [SeqRBMlowT_3930]" system_name="GST-tagged Cn" numeric_readout=-0.1298
residue_codes="RTNLNPFFFFTSDSKN [SeqRBM_2819]" system_name="GST-tagged Cn" numeric_readout=-0.6014

Inquiry: // lookup Chip Fluorescence (max) for STSSLPTFSFSSPPPT [SeqRBMlowT_3483]
Reply text: -1.1866

Inquiry: // lookup Chip Fluorescence (max) for YPPGTPTKQGQQMAPS [SeqRTS1_Aspergillus_carbonarius]
Reply text: -0.3471

Inquiry: // lookup Chip Fluorescence (max) for NWPETPSIVEQPPSSS [SeqRBM_881]
Reply text: 0.2051
